Study system: Purified recombinant ADAMTS-7 (rat prodomain/human catalytic domain, SEQ ID No. 01 or 02) (Homo sapiens)
Construct: rat ADAMTS-7 signal peptide + prodomain (rat 1-217, Q1EHB3) (N); 2xStrep tag (C); 6xHis tag (C)
Sequence (Q9UKP4 237-537): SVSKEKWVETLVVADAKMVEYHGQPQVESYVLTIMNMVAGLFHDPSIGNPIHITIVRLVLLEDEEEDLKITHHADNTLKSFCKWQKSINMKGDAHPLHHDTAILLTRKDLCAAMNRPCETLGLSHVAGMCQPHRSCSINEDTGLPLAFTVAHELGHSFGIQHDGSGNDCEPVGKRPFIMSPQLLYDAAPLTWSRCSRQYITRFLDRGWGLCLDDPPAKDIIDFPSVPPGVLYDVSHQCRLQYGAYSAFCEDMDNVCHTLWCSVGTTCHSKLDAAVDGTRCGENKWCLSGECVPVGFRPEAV
Procedure summary: Assay for ADAMTS-7 enzymatic activity (FRET substrate cleavage)
Cond: FRET substrate SEQ ID No. 11, 120 min at 32° C.; read-out: ADAMTS7-IC50
Protocol: Purified recombinant ADAMTS-7 (as of SEQ ID No. 01 or SEQ ID No. 02) was diluted in reaction buffer (20 mM HEPES pH 8.0, 150 mM NaCl, 5 mM CaCl2, 0.004% Brij, 10 μM ZnCl2) fora concentration of approximately 20 nM. […] The increase of fluorescence intensity was measured in appropriate fluorescence plate reader (e.g. TECAN Ultra) using excitation wavelength of 485 nm and emission wavelength of 520 nm. […]
# pIC50 annotations
Conceptually, pIC50 converts a concentration in mol/L into minus its log10.

Which pIC50 reading was recorded for the compound Cc1scnc1C1(CNC(=O)c2cnn(-c3ccc(F)cc3)n2)NC(=O)NC1=O (racemic) [Example 100] ? 8.10

Need pIC50 of O=C1NC(=O)C(CNC(=O)c2cnn(-c3ccccc3)n2)(c2ccncc2)N1 (racemic) [Example 21] , thanks. 6.70

What does the record list as pIC50 for Cc1ccccc1-n1ncc(C(=O)NC[C@@]2(C3CC3)NC(=O)NC2=O)n1 [Example 12] ? 6.01

Need pIC50 of O=C1NC(=O)C(CNC(=O)c2cnn(-c3ccc(F)cc3)n2)(C2CCCC2)N1 (racemic) [Example 66] , thanks. 6.42

* * *

Listed below: pIC50 values for each entry.
Study system: ADAMTS4 (Homo sapiens, UniProt O75173)
Sequence (O75173 213-685 limits assumed): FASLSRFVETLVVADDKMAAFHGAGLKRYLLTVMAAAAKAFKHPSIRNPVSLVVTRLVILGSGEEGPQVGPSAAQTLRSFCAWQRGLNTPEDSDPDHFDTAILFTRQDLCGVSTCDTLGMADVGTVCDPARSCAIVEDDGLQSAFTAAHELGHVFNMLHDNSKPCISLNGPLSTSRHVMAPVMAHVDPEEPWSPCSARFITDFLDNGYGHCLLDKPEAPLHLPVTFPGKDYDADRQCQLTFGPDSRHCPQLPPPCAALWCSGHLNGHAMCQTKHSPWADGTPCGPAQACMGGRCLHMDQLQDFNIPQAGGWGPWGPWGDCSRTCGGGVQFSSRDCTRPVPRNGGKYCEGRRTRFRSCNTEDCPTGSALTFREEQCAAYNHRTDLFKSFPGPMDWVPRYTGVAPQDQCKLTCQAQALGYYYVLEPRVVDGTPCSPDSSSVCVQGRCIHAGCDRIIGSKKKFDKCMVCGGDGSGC
# pIC50 is unitless: minus log10 of the molar concentration; print number only

Previously resolved entries follow.
{"Molecule": "O=C1NC(=O)C(CNC(=O)c2cnn(-c3ccccc3)n2)(C2CCCC2)N1 (stereo not shown)", "Quantitative result": 4.96}
{"Molecule": "O=C1NC(=O)C(CNC(=O)c2cnn(-c3ccc(F)cc3)n2)(c2ncccc2C(F)(F)F)N1 (racemic)", "Quantitative result": 4.82}
{"Molecule": "CC(C)(C)C1(CNC(=O)c2cnn(-c3ccccc3)n2)NC(=O)NC1=O (stereo not shown)", "Quantitative result": 4.88}
{"Molecule": "O=C1NC(=O)C(CNC(=O)c2cnn(-c3ccccc3)n2)(C2CCOC2)N1 (racemic)", "Quantitative result": 4.66}
{"Molecule": "O=C1NC(=O)[C@](CNC(=O)c2cnn(-c3cccc(Cl)c3)n2)(C2CC2)N1", "Quantitative result": 6.35}

// map CC(C)(C)C1(CNC(=O)c2cnn(-c3ccc(F)cc3)n2)NC(=O)NC1=O (racemic) to recorded pIC50 (system: ADAMTS4 (Homo sapiens, UniProt O75173)) 5.22

Lab note: need pIC50 for O=C1NC(=O)[C@](CNC(=O)c2cnn(-c3ccc(C(F)(F)F)c(F)c3)n2)(C2CC2)N1 on ADAMTS4 (Homo sapiens, UniProt O75173), anyone have it? 5.34

* * *

Study system: ADAMTS4 (Homo sapiens)
Construct: purchased R&D 4307-AD
Procedure summary: Selectivity assay for ADAMTS-7 modulators (FRET), ADAMTS4
Type: biochemical
Cond: 50 nM enzyme (R&D 4307-AD), 1 μM Dabcyl/Edans FRET substrate, 120 min at 32° C.
Measurement name: IC50 (µM)
Note: unit µM is implicit; provide only the numeric part.

Consider the following illustrative entries.
{"Molecule": "Cn1ccnc1C1(CNC(=O)c2cnn(-c3cc(F)c(F)c(F)c3)n2)NC(=O)NC1=O (centres unmarked)", "Study system": "ADAMTS4 (Homo sapiens)", "IC50, µM": 0.108}
{"Molecule": "O=C1NC(=O)C(CNC(=O)c2cnn(-c3ccccc3)n2)(C2CCCOC2)N1 (single isomer, unassigned; dia1) [Example 84]", "Study system": "ADAMTS4 (Homo sapiens)", "IC50, µM": 4}
{"Molecule": "Cn1ccnc1C1(CNC(=O)c2cnn(-c3ccc(F)c(F)c3)n2)NC(=O)NC1=O (single isomer, unassigned; ent-2)", "Study system": "ADAMTS4 (Homo sapiens)", "IC50, µM": 0.046}
{"Molecule": "O=C1NC(=O)C(CNC(=O)c2cnn(-c3ccccc3)n2)(c2ccccn2)N1 (centres unmarked)", "Study system": "ADAMTS4 (Homo sapiens)", "IC50, µM": 2.8}

Lab note: next molecule to report on.
Find the recorded IC50 belonging to CC(C)C1(CNC(=O)c2cnn(-c3ccc(Cl)c(F)c3)n2)NC(=O)NC1=O (racemic) [Example 124] and report it. 2.8

* * *

Examples of compounds with documented pIC50 follow.
Study system: Purified recombinant ADAMTS-7 (rat prodomain/human catalytic domain, SEQ ID No. 01 or 02) (Homo sapiens)
Construct: rat ADAMTS-7 signal peptide + prodomain (rat 1-217, Q1EHB3) (N); 2xStrep tag (C); 6xHis tag (C)
Procedure summary: Assay for ADAMTS-7 enzymatic activity (FRET substrate cleavage)
Cond: FRET substrate SEQ ID No. 11, 120 min at 32° C.; read-out: ADAMTS7-IC50
Please treat pIC50 as minus the base-10 logarithm of the molar concentration.

Some compounds with recorded pIC50:
{"Compound": "O=C1NC(=O)C(CNC(=O)c2cnn(-c3ccc(F)cc3F)n2)(C2CCC2)N1 (stereo not shown) [Example 86]", "Quantitative result": 7.20}
{"Compound": "O=C1NC(=O)[C@](CNC(=O)c2cnn(-c3ccc(Cl)cc3Cl)n2)(C2CC2)N1 [Example 161]", "Quantitative result": 6.89}
{"Compound": "CC(C)C1(CNC(=O)c2cnn(-c3cccc(F)c3)n2)NC(=O)NC1=O (single isomer, unassigned; ent-2) [Example 119]", "Quantitative result": 7.89}

Consider the compound shown here: O=C1NC(=O)[C@](CNC(=O)c2coc(-c3ccc(F)cc3)n2)(C2CC2)N1 [Example 41] What is its recorded pIC50? 7.26

Value lookup for pIC50; key = O=C1NC(=O)[C@](CNC(=O)c2cnn(-c3cccc(F)c3F)n2)(C2CC2)N1 [Example 35] 7.13

pIC50 for CCCC1(CNC(=O)c2cnn(-c3ccccc3)n2)NC(=O)NC1=O (racemic) [Example 55] ? 6.62

Which value of pIC50 has been reported for CC(C)(C)C1(CNC(=O)c2cnn(-c3cccc(F)c3)n2)NC(=O)NC1=O (racemic) [Example 4] in the records? 6.59

I have this compound here, Cn1ccnc1C1(CNC(=O)c2cnn(-c3ccccc3)n2)NC(=O)NC1=O (racemic) [Example 140] , and I need its recorded pIC50. 8.40

Look up pIC50 for this compound: O=C1NC(=O)C(CNC(=O)c2cnn(-c3ccc(F)cc3)n2)(c2ccnn2C(F)F)N1 (racemic) [Example 128] 7.54

Looking for the measured pIC50 of O=C1NC(=O)C(CNC(=O)c2cnn(-c3ccc(F)cc3)n2)(c2cscn2)N1 (stereo not shown) [Example 148] , can you help? 7.92

Entry O=C1NC(=O)[C@](CNC(=O)c2cnn(-c3ccc(F)c(Cl)c3)n2)(C2CC2)N1 [Example 29] has what pIC50? 8.30
